Where do the numbers come from? From paper PMC10663500.

- Target Desc: T1, mouse programmed cell death protein 1 Fc fusion protein (mPD-1-Fc), mPD-1 C60S (aa 25-167) (Mus musculus, UniProt Q02242, stabilised)
- T1 construct: not cleaved; source: Expi293F, purified (Protein A, SEC; dimeric fraction); not shown: Fc (human), C-terminal, kept
- Test Name: SPR; Carterra LSA; Fab from the ammonium sulfate precipitate of the culture supernatant immobilised on a NiHC200M chip; hPD-1 (1-1024 nM) or mPD-1-Fc (4-1024 nM) as analyte, fourfold dilution series, no regeneration; HBS-EP pH 7.4, 25 °C; medians over the spots of a construct, KD = koff/kon
- Settings: one partner purified
Experimental Readout: Kd (nM)
Report as a plain number; the unit nM is understood.

Binder: toripalimab Fab L.P100L (Fab, V domains shown, as the heavy chain of Sm3; light chain of Sm3 with this change; numbers count from the chain's first residue; source: Brevibacillus, culture supernatant (ammonium sulfate precipitate); not shown: 6xHis, C-terminal, kept; 6xHN, C-terminal, kept) VH: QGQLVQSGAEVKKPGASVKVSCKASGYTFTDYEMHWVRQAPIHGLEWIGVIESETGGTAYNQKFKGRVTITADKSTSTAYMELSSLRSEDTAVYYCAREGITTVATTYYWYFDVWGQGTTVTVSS VL: DVVMTQSPLSLPVTLGQPASISCRSSQSIVHSNGNTYLEWYLQKPGQSPQLLIYKVSNRFSGVPDRFSGSGSGTDFTLKISRVEAEDVGVYYCFQGSHVLLTFGQGTKLEIK
Kd, nM: 9.99

Could you now consider this next binder?
Annotate the binder toripalimab Fab L.L101G (Fab, V domains shown, as the heavy chain of Sm3; light chain of Sm3 with this change; numbers count from the chain's first residue; source: Brevibacillus, culture supernatant (ammonium sulfate precipitate); not shown: 6xHis, C-terminal, kept; 6xHN, C-terminal, kept) VH: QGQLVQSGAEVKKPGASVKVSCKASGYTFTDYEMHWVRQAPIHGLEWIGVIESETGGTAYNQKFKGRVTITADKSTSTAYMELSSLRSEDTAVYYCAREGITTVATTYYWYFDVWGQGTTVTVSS VL: DVVMTQSPLSLPVTLGQPASISCRSSQSIVHSNGNTYLEWYLQKPGQSPQLLIYKVSNRFSGVPDRFSGSGSGTDFTLKISRVEAEDVGVYYCFQGSHVPGTFGQGTKLEIK with its measured Kd. 40.1
